Form field: growth (one value per entry).
# System: A498 renal
# protocol-description: NCI-60 one-dose screen, 48 h (100 = growth as untreated, 0 = no growth, -100 = all killed)
# condition-info: 10 µM unless noted
# Method: Growth inhibition of the A498 human tumor cell line is measured as a screen for anti-cancer activity. Cells are grown in 96 well plates and exposed to the test compound for 48 hours. Compounds are tested at a single concentration, which is 10^-5 M for most compounds. The reported endpoint is percent growth (GI% or GIPRCNT), where numbers from 0 - 100% represent growth inhibition, and numbers from -100% - 0 represent cell death. For example, a value of 40 represents 60% growth inhibition. […]
This is part of a sample that, as a whole, favours compounds with a hit. Of some 83,000 tested, about 20% had one in any assay.
Just the number in %, nothing appended.

Here is how some compounds turned out for growth.
Cc1ccc(/C=C(\C#N)n2nc3cccc(F)c3n2)cc1 : 56
COC(=O)c1ccc2[nH]c(O)c(C(=Nc3ccc(N(C)C(=O)CN4CCN(C)CC4)cc3)c3ccccc3)c2c1 : -35.9
Cc1cc(O)c(C2=NN(c3ccc(S(N)(=O)=O)cc3)C(c3ccccc3O)C2)cc1Cl (stereo not drawn) : 20.6
COc1cc2cc(Oc3ccc(NC(=O)Nc4cccc(C(F)(F)F)c4)cc3)c(C)nc2cc1OCCN1CCOCC1 : 64.2
COc1cc(C(=O)/C=C/c2sc(Cl)nc2Cl)cc(OC)c1OC : 89.9
COc1cc(C(=O)/C=C/c2ccc(OCCCCCC[P+](c3ccccc3)(c3ccccc3)c3ccccc3)cc2)cc(OC)c1OC : -42
CC/C=C\C[C@@H](O)C/C=C1/C(=O)C=C[C@H]1C/C=C\CCCC(=O)OC : 97.4
COc1cc2cc(Oc3ccc(NC(=O)Nc4ccc(Cl)c(C(F)(F)F)c4)cc3)c(C)nc2cc1OCCN1CCOCC1 : 41.5
COc1ccc(C(=O)COC(=O)[C@H](C[Se][Se]C[C@H](NC(=O)c2ccc(Br)cc2F)C(=O)OCC(=O)c2ccc(OC)cc2)NC(=O)c2ccc(Br)cc2F)cc1 : -23.8
CCOC(=O)C1=C(N)Oc2c(sc3c(C)cccc23)C1c1ccc(Cl)cc1 (stereo not drawn) : 3.91

[Q] Entry `COc1ccc(NC(=O)n2nc(/C=C\c3ccc(O)c(OC)c3)cc2/C=C\c2ccc(O)c(OC)c2)cc1` : reported growth = ?
[A] 82.5

[Q] Would you mind telling me what growth value was observed for CC1=C(SCCC(=O)OC(C[Se]C2=C(C)C(=O)c3ccccc3C2=O)C(=O)NC(C)(C)C)C(=O)c2ccccc2C1=O (stereo not drawn) ?
[A] -40.6

[Q] Sample `O=C(N/N=C/[C@H](O)[C@@H](O)[C@@H](O)[C@H](O)CO)c1ccc(NC(=O)c2cccnc2)cc1` — what was its growth?
[A] 107

[Q] What value of measured growth is listed for `CCCCC[C@H](O)C/C=C1/C(=O)C=C[C@@H]1C/C=C\CCCC(=O)O` ?
[A] 109

[Q] # growth lookup, item `COc1ccc(NC2=C(Br)C(=O)C(C)=C(C)C2=O)cc1`
[A] 93.5

[Q] Entry under review: `CC(=O)CC[C@H]1C(=O)N[C@@H](C(C)C)C(=O)N[C@@H](Cc2cc(O)cc(F)c2)C(=O)N2CCC[C@H](N2)C(=O)O[C@H](/C(C)=C/C=C/C(=O)OC(C)(C)C)C/C=C/C=C/[C@H](O)[C@H](C)[C@H]1O` . Reported growth?
[A] 82.3

[Q] For the compound `O=C(N/N=C/[C@H](O)[C@H](O)[C@H](O)CO)c1ccc(NC(=O)c2cccnc2)cc1` , what growth is on record?
[A] 99.3

[Q] May I ask what growth has been recorded for `Nc1nc(-c2cccc3ccccc23)cc2ccccc12` ?
[A] -19.8
